Taken from patent US20260325540A1.

- Experimental Target: MERS-CoV 3CLpro (Middle East respiratory syndrome-related coronavirus)
- Sequence (K9N638 3248-3553 limits assumed): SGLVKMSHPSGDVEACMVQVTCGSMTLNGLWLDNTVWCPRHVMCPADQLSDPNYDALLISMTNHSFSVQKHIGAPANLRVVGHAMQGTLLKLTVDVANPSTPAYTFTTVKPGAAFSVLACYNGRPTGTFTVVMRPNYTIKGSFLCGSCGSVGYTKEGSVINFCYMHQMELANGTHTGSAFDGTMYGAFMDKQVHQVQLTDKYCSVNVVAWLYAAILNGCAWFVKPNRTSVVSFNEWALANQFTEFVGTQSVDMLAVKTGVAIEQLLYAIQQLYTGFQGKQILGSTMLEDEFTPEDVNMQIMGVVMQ
pIC50: −log10 of the molar value.
Readout: pIC50

{"columns": ["Structure", "Experimental Target", "pIC50"],
 "data": [
  ["CC(C)(F)C[C@@H]1NC(=O)[C@@H](NC(=O)OC(C)(C)C)CCCC[C@H]2CNC(=O)[C@H]2C[C@@H](C#N)NC1=O", "MERS-CoV 3CLpro (Middle East respiratory syndrome-related coronavirus)", "6.00 to 7.00"]
]}

input: Bench note: what pIC50 did CC(C)(C)OC(=O)N[C@H]1CCC[C@H]2CCNC(=O)[C@H]2C[C@@H](C#N)NC(=O)[C@@H]2[C@H]3CCC[C@H]3CN2C1=O show?
output: 4.70 to 6.00

input: Find the recorded pIC50 belonging to CC1(C)[C@@H]2[C@H]3C(=O)N[C@H](C#N)C[C@@H]4C(=O)NC[C@@H]4CCCC[C@H](NC(=O)c4cccc(Cl)c4Cl)C(=O)N3C[C@@H]21 and report it.
output: > 7.00

input: pIC50 lookup needed for CC(C)C[C@@H]1NC(=O)[C@@H](Cc2ccccc2)CCCCC[C@H]2CNC(=O)[C@H]2C[C@@H](C#N)NC1=O , thanks.
output: 4.70 to 6.00

input: Requested field: pIC50. Item: CC(C)C[C@@H]1NC(=O)[C@@H](Cc2ccccc2)CCCC[C@H]2CNC(=O)[C@H]2C[C@@H](C=O)NC1=O
output: 6.00 to 7.00

input: What value of measured pIC50 is listed for CC(C)(C)CC(=O)N[C@H]1CCCC[C@H]2CNC(=O)[C@H]2C[C@@H](C#N)NC(=O)[C@@H]2[C@@H]3[C@H](CN2C1=O)C3(C)C ?
output: > 7.00

input: Quick check: pIC50 of CC(C)(C)C(=O)N[C@H]1C/C=C/[C@H]2CNC(=O)[C@H]2C[C@@H](C#N)NC(=O)[C@@H]2[C@@H]3[C@H](CN2C1=O)C3(C)C ?
output: 6.00 to 7.00

input: Suppose we examine the compound CC(C)(C)C[C@@H]1NC(=O)[C@@H](NC(=O)C(C)(C)C)CCCC[C@H]2CNC(=O)[C@H]2C[C@@H](C#N)NC1=O ; what pIC50 value has been reported?
output: 6.00 to 7.00

input: Recorded pIC50 for CC1(C)[C@@H]2[C@H]3C(=O)N[C@H](C#N)C[C@@H]4C(=O)NC[C@@H]4CCCC[C@H](NC(=O)c4ccncn4)C(=O)N3C[C@@H]21 , please?
output: > 7.00

input: What pIC50 value was documented for this compound, CC(C)(C)CC(=O)N[C@H]1CCCC[C@H]2CCNC(=O)[C@H]2C[C@@H](C#N)NC(=O)[C@@H]2[C@H]3CCC[C@H]3CN2C1=O ?
output: 6.00 to 7.00

input: Name the reported pIC50 value associated with the compound CC1(C)[C@@H]2[C@H]3C(=O)N[C@H](C#N)C[C@@H]4C(=O)NC[C@@H]4CCCC[C@H](NC(=O)C4CCCCC4)C(=O)N3C[C@@H]21
output: > 7.00

input: May I ask what pIC50 has been recorded for CC(C)(C)OC(=O)N[C@H]1CCC[C@H]2CNC(=O)[C@H]2C[C@@H](C#N)NC(=O)[C@@H]2[C@@H]3[C@H](CN2C(=O)C1)C3(C)C ?
output: < 4.70

input: I am curious: what pIC50 value has been reported for CC1(C)[C@@H]2[C@H]3C(=O)N[C@H](C#N)C[C@@H]4C(=O)NC[C@@H]4CCCC[C@H](NC(=O)C4CCC(F)(F)CC4)C(=O)N3C[C@@H]21 ?
output: > 7.00
